These data points were gathered from patent US20150305367A1.

# experimentalTarget: recombinant human MAO-B (Homo sapiens, UniProt P27338)
# Construct: purchased Sigma-Aldrich; host or cells: baculovirus-infected insect cells (microsomes)
# Sequence (P27338 1-520): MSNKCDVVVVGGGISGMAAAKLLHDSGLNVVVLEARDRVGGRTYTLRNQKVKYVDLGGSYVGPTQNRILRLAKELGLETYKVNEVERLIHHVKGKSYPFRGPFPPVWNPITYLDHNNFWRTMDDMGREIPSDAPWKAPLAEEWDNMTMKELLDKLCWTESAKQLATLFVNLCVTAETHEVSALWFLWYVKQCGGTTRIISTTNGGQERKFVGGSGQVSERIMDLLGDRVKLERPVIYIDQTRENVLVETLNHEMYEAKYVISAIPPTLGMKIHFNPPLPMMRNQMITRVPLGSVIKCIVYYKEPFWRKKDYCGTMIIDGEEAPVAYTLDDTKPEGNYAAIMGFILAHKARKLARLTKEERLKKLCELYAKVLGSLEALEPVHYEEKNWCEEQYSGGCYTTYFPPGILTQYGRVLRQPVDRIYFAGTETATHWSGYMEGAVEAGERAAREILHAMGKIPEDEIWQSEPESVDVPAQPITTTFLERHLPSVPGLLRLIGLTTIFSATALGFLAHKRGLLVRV
# assay: MAO-Glo chemiluminescent MAO-B inhibition assay
# Type: biochemical
# assayContext: overall verdict over 1, 10 and 100 μM
assayMetric: MAO-B inhibition (Yes/No)

Before answering, review these 4 worked examples.
[
  {
    "compound": "C=CCc1ccc(O)c(OC)c1",
    "MAO-B inhibition (Yes/No)": "No"
  },
  {
    "compound": "O=Cc1ccc(O)cc1 [4-Hydroxybenzaldehyde]",
    "MAO-B inhibition (Yes/No)": "Yes"
  },
  {
    "compound": "COc1ccccc1O",
    "MAO-B inhibition (Yes/No)": "No"
  },
  {
    "compound": "COc1cc(/C=C/C(=O)O)ccc1O",
    "MAO-B inhibition (Yes/No)": "No"
  }
]

Please state MAO-B inhibition (Yes/No) for every compound in the list that follows.
1. O=Cc1ccc2c(c1)OCO2
2. COc1cc(C(=O)O)ccc1O

Result ::
Yes
No

----------
Provide the reported inhibition at 100 µM of each item.
# experimentalTarget: recombinant human MAO-B (Homo sapiens)
# Construct: purchased Sigma-Aldrich; host or cells: baculovirus-infected insect cells (microsomes)
# assay: MAO-Glo chemiluminescent MAO-B inhibition assay;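 also: MAO-B from microsomes of baculovirus-infected insect cells, luciferin-based luminescence read-out, inhibition relative to enzyme activity with DMSO vehicle alone and no inhibitor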
# Format: biochemical
# assayContext: test concentration 100 μM; mean ± standard deviation, triplicate; 90 min incubation
Returns: string containing the number followed by the unit.

[
  {
    "compound": "O=C(/C=C/c1ccccc1)OCc1ccccc1 [Benzyl cinnamate]",
    "experimentalTarget": "recombinant human MAO-B (Homo sapiens)",
    "inhibition at 100 µM": "100%"
  },
  {
    "compound": "COc1cc(/C=C/C(=O)O)ccc1O",
    "experimentalTarget": "recombinant human MAO-B (Homo sapiens)",
    "inhibition at 100 µM": "4%"
  },
  {
    "compound": "COc1cc(C=O)ccc1O",
    "experimentalTarget": "recombinant human MAO-B (Homo sapiens)",
    "inhibition at 100 µM": "19%"
  },
  {
    "compound": "COc1ccc(C=O)cc1",
    "experimentalTarget": "recombinant human MAO-B (Homo sapiens)",
    "inhibition at 100 µM": "75%"
  },
  {
    "compound": "COc1ccc(C=O)cc1OC",
    "experimentalTarget": "recombinant human MAO-B (Homo sapiens)",
    "inhibition at 100 µM": "0%"
  }
]

Please state inhibition at 100 µM for every compound in the list that follows.
1. COc1cc(C(=O)O)ccc1O
2. O=C(O)/C=C/c1ccc(O)cc1
3. O=Cc1ccc2c(c1)OCO2

Result ::
1: 11%; 2: 17%; 3: 100%

Please state inhibition at 100 µM for every compound in the list that follows.
1. OCc1ccc(O)cc1 [4-Hydroxybenzyl alcohol]
2. O=C(O)c1ccc(O)cc1 [4-Hydroxybenzoic acid]
3. CCOc1cc(C=O)ccc1O
4. CC(=O)C(C)O (centres unmarked) [3-Hydroxy-2-butanone]
5. C=CCc1ccc(O)c(OC)c1
6. CC1=C(O)C(=O)C(C)O1 (centres unmarked) [4-Hydroxy-2,5-dimethyl-3(2H)-furanone]

Result ::
6%
11%
4%
7%
0%
7%
